- System: HEK-293T
- TEST DESCRIPTION: Multiplex assay against HEK293T
- Format: toxicity, cell-based
- SETTINGS: human, 12 h, 1 µM, compound concentration 1 uM, replicate 1
OBSERVATION TYPE: Total Cell Count

1) CN1CCC(=C2c3ccccc3CC(=O)c3sccc32)CC1.O=C(O)/C=C/C(=O)O [KETOTIFEN FUMARATE] : 288
2) Cn1nc(C(F)(F)F)cc1-c1cnc(N2CCc3cc(S(=O)(=O)Nc4c(F)cc(Cl)cc4F)cc(N4CCCC4=O)c32)nc1 [TP-020] : 692
3) Cc1ccc2nc(NCCN)c3ncc(C)n3c2c1.O=C(O)C(F)(F)F.O=C(O)C(F)(F)F : 581
4) CCn1cc(-c2ccnc3[nH]c(-c4cccc(CN(C)C)c4)cc23)c(-c2ccc(NC(=O)N(C)C)cc2)n1 [GSK-1070916] : 676
